test system: 4T1; assay: % inhibition of 4T1 cell number vs DMSO control; higher = stronger growth inhibition; conditions: 1 µM; 3 days; substrate: lung fibroblast-derived matrix
Where a name gives a salt, the structure may show the parent alone.
Outcome Measure: % inhibition of 4T1 cell number (%)
Could you give me the number in %? Just the number is fine.

*Q* Please give the documented % inhibition of 4T1 cell number of O=C1NC(=O)c2c1c1c3ccccc3[nH]c1n1cncc21 [Isogranulatimide]
*A* -7.38

*Q* Please give the documented % inhibition of 4T1 cell number of O=S(=O)(c1cccc2c(I)cccc12)N1CCCNCC1 [ML-7, Hydrochloride]
*A* -1.62

*Q* Please give the documented % inhibition of 4T1 cell number of COc1cccc(-c2cc(=O)c3ccccc3o2)c1N
*A* -10.2

*Q* Please give the documented % inhibition of 4T1 cell number of O=C1NCCc2[nH]c(-c3ccnc(-c4cnc5ccccc5c4)c3)cc21
*A* -4.6

*Q* Please give the documented % inhibition of 4T1 cell number of CC(C)[C@H](CO)Nc1nc(Nc2cc(N)cc(Cl)c2)c2ncn(C(C)C)c2n1
*A* -15.7

*Q* Please give the documented % inhibition of 4T1 cell number of O=C(Nc1ccncc1)Nc1c(Cl)cc(Cl)cc1Cl
*A* -4.7

*Q* Please give the documented % inhibition of 4T1 cell number of Oc1ccc(-c2nc(-c3ccc(F)cc3)c(-c3ccncc3)[nH]2)cc1
*A* -2.55

*Q* Please give the documented % inhibition of 4T1 cell number of CCN(CC)C(=O)c1ccc(Nc2nc(OCC3CCCCC3)c3[nH]cnc3n2)cc1
*A* -6.34

*Q* Please give the documented % inhibition of 4T1 cell number of Cn1sc(=O)n(Cc2ccccc2)c1=O
*A* 9.49

###

Field: % inhibition of 4T1 cell number. Provide a value for each of the compounds that follow.
tested on: 4T1; assay: % inhibition of 4T1 cell number vs DMSO control; higher = stronger growth inhibition; conditions: 1 µM; 3 days; substrate: mCAF1 fibroblast-derived matrix
Counter-ions that a name gives are not always drawn.
Could you give me the number in %? Just the number is fine.

*Q* Please give the documented % inhibition of 4T1 cell number of CCCCn1c2ccc(O)cc2c2c3c(c(-c4ccccc4Cl)cc21)C(=O)NC3=O [Wee1 Inhibitor II]
*A* 4.43

*Q* Please give the documented % inhibition of 4T1 cell number of Cn1c(O)c(-c2[nH]c3ccccc3c2N=O)c2ccc(Br)cc21 [GSK-3 Inhibitor IX, Control, MeBIO]
*A* -1.76

*Q* Please give the documented % inhibition of 4T1 cell number of CCCC(=O)Oc1ccc2[nH]c(C(=O)c3cc4ccccc4[nH]3)cc2c1 [PDGF Receptor Tyrosine Kinase Inhibitor II]
*A* 1.3

*Q* Please give the documented % inhibition of 4T1 cell number of CS(=O)(=O)c1ccc(-c2nc(-c3ccc(F)cc3)c(-c3ccncc3)[nH]2)cc1
*A* 14.7

*Q* Please give the documented % inhibition of 4T1 cell number of COc1cc2ncn(-c3cc(OCc4ccccc4S(C)(=O)=O)c(C#N)s3)c2cc1OC [IKK-3 Inhibitor IX]
*A* 6.5

*Q* Please give the documented % inhibition of 4T1 cell number of N#C/C(=C\c1ccc(O)c(O)c1)C(=O)NCc1ccccc1
*A* 15.2

*Q* Please give the documented % inhibition of 4T1 cell number of CCCCc1c(-c2ccc(O)cc2)[nH]c2nccnc12 [Aloisine A]
*A* -3.45

*Q* Please give the documented % inhibition of 4T1 cell number of NC(N)=NCCNS(=O)(=O)c1cccc2cnccc12 [HA 1004, Dihydrochloride]
*A* -8.89

*Q* Please give the documented % inhibition of 4T1 cell number of CCC(=O)Nc1ccc2ncnc(Nc3cccc(Br)c3)c2c1
*A* -19.4

*Q* Please give the documented % inhibition of 4T1 cell number of Cc1cc(C)c(/C=C2\C(=O)Nc3ccccc32)[nH]1 [VEGF Receptor 2 Kinase Inhibitor III]
*A* -25

*Q* Please give the documented % inhibition of 4T1 cell number of O=C(Nc1ccc(-c2cn[nH]c2)cc1)C1COc2ccccc2O1 (configuration not stated) [Rho Kinase Inhibitor V]
*A* 7.12

*Q* Please give the documented % inhibition of 4T1 cell number of N#Cc1c(NC(=O)c2cccc3ccccc23)sc2c1CCCC2 [JNK Inhibitor IX]
*A* 90.8

*Q* Please give the documented % inhibition of 4T1 cell number of CC(C)[C@H](CO)Nc1nc(Nc2cc(N)cc(Cl)c2)c2ncn(C(C)C)c2n1 [Aminopurvalanol A]
*A* 41.1

*Q* Please give the documented % inhibition of 4T1 cell number of O=c1[nH][nH]c2nnc(-c3c(-c4ccccc4)nn4ccccc34)cc12 [ERK Inhibitor II, Negative control]
*A* 3.24

*Q* Please give the documented % inhibition of 4T1 cell number of CC(=O)c1ccc(N2CCOCC2)cc1O [DNA-PK Inhibitor III]
*A* -5.96

*Q* Please give the documented % inhibition of 4T1 cell number of C[C@@H](N)C1CCC(C(=O)Nc2ccncc2)CC1 (some centres not stated)
*A* 9.93

*Q* Please give the documented % inhibition of 4T1 cell number of CCCCCCOC(=O)[C@]1(O)C[C@@H]2O[C@@]1(C)n1c3ccccc3c3c4c(c5c6ccccc6n2c5c31)C(=O)NC4
*A* 13.5

###

tested on: 4T1; test: % inhibition of 4T1 cell number vs DMSO control; higher = stronger growth inhibition; conditions: 1 µM; 3 days; substrate: gelatin
Structures can show the parent of a compound that is named as a salt.
Field: % inhibition of 4T1 cell number. Provide a value for each of the compounds that follow.
Could you give me the number in %? Just the number is fine.

*Q* Please give the documented % inhibition of 4T1 cell number of COc1cc2ncn(-c3cc(OCc4ccccc4S(C)(=O)=O)c(C#N)s3)c2cc1OC
*A* -1.27

*Q* Please give the documented % inhibition of 4T1 cell number of O=C1Nc2ccc(Br)cc2/C1=C/c1cc2c([nH]1)CCCC2
*A* -22.2

*Q* Please give the documented % inhibition of 4T1 cell number of CC(C)[C@H](CO)Nc1nc(Nc2cc(N)cc(Cl)c2)c2ncn(C(C)C)c2n1
*A* 71.6

*Q* Please give the documented % inhibition of 4T1 cell number of COc1cc2ncnc(Nc3ccc(O)c(Br)c3)c2cc1OC
*A* -52.6

*Q* Please give the documented % inhibition of 4T1 cell number of CNCCNS(=O)(=O)c1cccc2cnccc12 [H-8, Dihydrochloride]
*A* 25.7

*Q* Please give the documented % inhibition of 4T1 cell number of Cn1cc(C2=C(c3cn(CCCSC(=N)N)c4ccccc34)C(=O)NC2=O)c2ccccc21
*A* 35.1

*Q* Please give the documented % inhibition of 4T1 cell number of CO[C@H]1C[C@@H]2CC[C@@H](C)[C@@](O)(O2)C(=O)C(=O)N2CCCC[C@H]2C(=O)O[C@H]([C@H](C)C[C@@H]2CC[C@@H](O)[C@H](OC)C2)CC(=O)[C@H](C)/C=C(\C)[C@@H](O)[C@@H](OC)C(=O)[C@H](C)C[C@H](C)/C=C/C=C/C=C/1C
*A* -32

*Q* Please give the documented % inhibition of 4T1 cell number of COc1ccc(CNc2nc(N(CCO)CCO)nc3c2ncn3C(C)C)cc1
*A* 15.9

*Q* Please give the documented % inhibition of 4T1 cell number of N#CC(c1ccnc(NCCc2cccnc2)n1)c1nc2ccccc2s1 (stereo unspecified)
*A* 6.99

*Q* Please give the documented % inhibition of 4T1 cell number of C[S+]([O-])c1ccc(-c2nc(-c3ccc(F)cc3)c(-c3ccncc3)[nH]2)cc1 (stereo unspecified)
*A* 44.4

*Q* Please give the documented % inhibition of 4T1 cell number of N#Cc1c(NC(=O)c2cccc3ccccc23)sc2c1CCCC2
*A* 92.5

*Q* Please give the documented % inhibition of 4T1 cell number of CCCCn1c2ccc(O)cc2c2c3c(c(-c4ccccc4Cl)cc21)C(=O)NC3=O
*A* 63

*Q* Please give the documented % inhibition of 4T1 cell number of COc1ccc(OC)c2c(=S)c3ccccc3[nH]c12
*A* -7.36

*Q* Please give the documented % inhibition of 4T1 cell number of COc1ccc2nc3n[nH]c(C)c3c(NCCOCCO)c2c1
*A* 44.2

*Q* Please give the documented % inhibition of 4T1 cell number of CN[C@@H]1C[C@H]2O[C@@](C)([C@@H]1OC)n1c3ccccc3c3c4c(c5c6ccccc6n2c5c31)C(=O)N[C@H]4O
*A* 99.2

*Q* Please give the documented % inhibition of 4T1 cell number of CC(C)(C)c1nc2c3cc[nH]c(=O)c3c3cc(F)ccc3c2[nH]1
*A* -101

###

system: 4T1; assay: % inhibition of 4T1 cell number vs DMSO control; higher = stronger growth inhibition; settings: 1 µM; 3 days; substrate: mCAF1 fibroblast-derived matrix
Outcome Measure: % inhibition of 4T1 cell number (%)
Could you give me the number in %? Just the number is fine.

*Q* Please give the documented % inhibition of 4T1 cell number of COc1cc2ncnc(Nc3cccc(Cl)c3)c2cc1OC
*A* 6.77

*Q* Please give the documented % inhibition of 4T1 cell number of Nc1[nH]nc2nnc(-c3c(-c4ccccc4)nn4ccccc34)cc12
*A* 1.41

*Q* Please give the documented % inhibition of 4T1 cell number of COc1ccc2nc3n[nH]c(C)c3c(NCCOCCO)c2c1
*A* -1.22

*Q* Please give the documented % inhibition of 4T1 cell number of O=C(Nc1cccc(Nc2nccc(Nc3cccc(C(F)(F)F)c3)n2)c1)C1CC1
*A* 15

*Q* Please give the documented % inhibition of 4T1 cell number of O=C(Nc1cc(C(F)(F)F)cc(C(F)(F)F)c1)c1cc(Cl)ccc1O
*A* 82.9

*Q* Please give the documented % inhibition of 4T1 cell number of COc1ccc(CNc2nc(N(CCO)CCO)nc3c2ncn3C(C)C)cc1
*A* 22

*Q* Please give the documented % inhibition of 4T1 cell number of CCC(CO)Nc1nc(NCc2ccccc2)c2ncn(C(C)C)c2n1 [Roscovitine, (S)-Isomer]
*A* 29.4

*Q* Please give the documented % inhibition of 4T1 cell number of NC(=O)c1ccc2nc(-c3ccc(Oc4ccc(Cl)cc4)cc3)[nH]c2c1
*A* 21.5

*Q* Please give the documented % inhibition of 4T1 cell number of CCCCCCCCCCCCCCCCn1cc[n+](Cc2ccccc2)c1C
*A* 83.2

*Q* Please give the documented % inhibition of 4T1 cell number of CCN(CC)CCCCN1c2ccccc2Oc2ccc(Cl)cc21
*A* -26.9

*Q* Please give the documented % inhibition of 4T1 cell number of CC[n+]1c(/C=C/N(C)c2ccccc2)n(-c2ccccc2)c2ccc(-c3nc4ccccc4s3)cc21
*A* 92.1

*Q* Please give the documented % inhibition of 4T1 cell number of N#CC(c1ccnc(NCCc2cccnc2)n1)c1nc2ccccc2s1 (stereo not drawn)
*A* 52.2

*Q* Please give the documented % inhibition of 4T1 cell number of CC(C)(C)c1nc2c3cc[nH]c(=O)c3c3cc(F)ccc3c2[nH]1
*A* 20.7

*Q* Please give the documented % inhibition of 4T1 cell number of CC[C@@H](CO)Nc1nc(NCc2ccc(-c3ccccn3)cc2)c2ncn(C(C)C)c2n1 [CR8, (S)-Isomer]
*A* 95.8

*Q* Please give the documented % inhibition of 4T1 cell number of Cc1ncc2ccccc2c1C#N
*A* -46.1

*Q* Please give the documented % inhibition of 4T1 cell number of COc1ccc2c(c1)c(C1=C(c3c[nH]c4ccccc34)C(=O)NC1=O)cn2CCCN(C)C
*A* 11.8

*Q* Please give the documented % inhibition of 4T1 cell number of O=C(c1cc2cc(O)ccc2[nH]1)c1cc2cc(O)ccc2[nH]1
*A* 22.7

*Q* Please give the documented % inhibition of 4T1 cell number of N#Cc1c(C2CCNCC2)cc(-c2c(O)cccc2OCC2CC2)nc1N
*A* 9.43
